Listed here are molecules together with their documented Minimal inhibitory concentration(MIC), Cry. neoformans B. 42419.
System: Cryptococcus neoformans B. 42419
Assay: In vitro antifungal activity, microbroth dilution MIC
Assay type: cell-based
Conditions: RPMI-1640, 35° C., 4 to 48 hours, no growth observed
Respond with the bare value in µg/mL.

# example entries with known answers
FC(OCC1COC(Cn2cncn2)(c2ccc(Cl)cc2Cl)O1)=C(c1ccc(Cl)cc1)C(F)(F)F (mixture of isomers) | 1.56
FC(Oc1ccc(OCC2COC(Cn3ccnc3)(c3ccc(Cl)cc3Cl)O2)cc1)=C(c1ccc(Oc2ccccc2)cc1)C(F)(F)F (mixture of isomers) | 12.5
COc1ccc(C(=C(F)N2CCN(c3ccc(OCC4COC(Cn5ccnc5)(c5ccc(Cl)cc5Cl)O4)cc3)CC2)C(F)(F)F)cc1 (mixture of isomers) | 0.78

// next item, Minimal inhibitory concentration(MIC), Cry. neoformans B. 42419 requested
Exam item: Answer with the recorded Minimal inhibitory concentration(MIC), Cry. neoformans B. 42419 of FC(Oc1ccc(OCC2COC(Cn3ccnc3)(c3ccc(F)cc3F)O2)cc1)=C(c1ccc(Oc2ccccc2)cc1)C(F)(F)F (mixture of isomers) only.
Marked response: 3.13

###

Listed here are molecules together with their documented Minimal inhibitory concentration (MIC).
System: Candida krusei K. 11655
Assay: In vitro antifungal activity, microbroth dilution MIC
Type: cell-based
Details: C. krusei K. 11655, RPMI-1640, 35° C., 4 to 48 hours

# example entries with known answers
FC(OCC1COC(Cn2ccnc2)(c2ccc(F)cc2F)O1)=C(c1ccc(Oc2ccccc2)cc1)C(F)(F)F (mixture of isomers) | >100 µg/mL
CCOc1ccc(C=C(F)OCC2COC(Cn3ccnc3)(c3ccc(Cl)cc3Cl)O2)cc1 (stereo not drawn) | 25.0 µg/mL
Cc1cccc(C=C(F)OCC2COC(Cn3ccnc3)(c3ccc(F)cc3F)O2)c1 (mixture of isomers) | >100 µg/mL
FC(OCC1COC(Cn2ccnc2)(c2ccc(F)cc2F)O1)=C(c1ccccc1)C(F)(F)F (mixture of isomers) | 100 µg/mL
FC(OCC1COC(Cn2ccnc2)(c2ccc(Cl)cc2Cl)O1)=C(c1ccc(Oc2ccccc2)cc1)C(F)(F)F (stereo not drawn) | >100 µg/mL

Exam item: Answer with the recorded Minimal inhibitory concentration (MIC) of FC(=Cc1ccc(Cl)cc1)OCC1COC(Cn2ccnc2)(c2ccc(F)cc2F)O1 (mixture of isomers) only.
Marked response: 12.5 µg/mL

Exam item: Answer with the recorded Minimal inhibitory concentration (MIC) of FC(OCC1COC(Cn2ccnc2)(c2ccc(F)cc2F)O1)=C(c1cccs1)C(F)(F)F (mixture of isomers) only.
Marked response: 50.0 µg/mL

Exam item: Answer with the recorded Minimal inhibitory concentration (MIC) of FC(=Cc1cccc(F)c1)OCC1COC(Cn2ccnc2)(c2ccc(F)cc2F)O1 (mixture of isomers) only.
Marked response: 25.0 µg/mL

Exam item: Answer with the recorded Minimal inhibitory concentration (MIC) of CCc1ccc(C(=C(F)OCC2COC(Cn3ccnc3)(c3ccc(F)cc3F)O2)C(F)(F)F)cc1 (mixture of isomers) only.
Marked response: >100 µg/mL

Exam item: Answer with the recorded Minimal inhibitory concentration (MIC) of FC(OCC1COC(Cn2ccnc2)(c2ccc(F)cc2F)O1)=C(c1cccc(C(F)(F)F)c1)C(F)(F)F (mixture of isomers) only.
Marked response: 100 µg/mL

Exam item: Answer with the recorded Minimal inhibitory concentration (MIC) of FC(OCC1COC(Cn2ccnc2)(c2ccc(Cl)cc2Cl)O1)=C(c1ccc(Cl)cc1)C(F)(F)F (stereo not drawn) only.
Marked response: 25.0 µg/mL

Exam item: Answer with the recorded Minimal inhibitory concentration (MIC) of Cc1cccc(C=C(F)OCC2COC(Cn3ccnc3)(c3ccc(Cl)cc3Cl)O2)c1 (stereo not drawn) only.
Marked response: 12.5 µg/mL

Exam item: Answer with the recorded Minimal inhibitory concentration (MIC) of FC(=Cc1ccc(F)cc1)OCC1COC(Cn2ccnc2)(c2ccc(Cl)cc2Cl)O1 (stereo not drawn) only.
Marked response: 6.25 µg/mL

Exam item: Answer with the recorded Minimal inhibitory concentration (MIC) of FC(=Cc1ccccc1)OC[C@H]1CO[C@](Cn2ccnc2)(c2ccc(Cl)cc2Cl)O1 (relative stereo) only.
Marked response: 6.25 µg/mL

Exam item: Answer with the recorded Minimal inhibitory concentration (MIC) of CCc1ccc(C=C(F)OCC2COC(Cn3ccnc3)(c3ccc(Cl)cc3Cl)O2)cc1 (stereo not drawn) only.
Marked response: 6.25 µg/mL

###

Test system: Candida krusei K. 11655
Experiment: In vitro antifungal activity, microbroth dilution MIC
Type: cell-based
Settings: RPMI-1640, 35° C., 4 to 48 hours, no growth observed
endpoint: Minimal inhibitory concentration(MIC), C. krusei K. 11655 (µg/mL)
Respond with the bare value in µg/mL.

FC(=C(c1ccc2c(c1)OCO2)C(F)(F)F)N1CCN(c2ccc(OCC3COC(Cn4ccnc4)(c4ccc(F)cc4F)O3)cc2)CC1 (mixture of isomers) [Ex. 145] | 1.56

// next item, Minimal inhibitory concentration(MIC), C. krusei K. 11655 requested
Exam item: Answer with the recorded Minimal inhibitory concentration(MIC), C. krusei K. 11655 of Cc1ccc(C(=C(F)N2CCN(c3ccc(OCC4COC(Cn5ccnc5)(c5ccc(Cl)cc5Cl)O4)cc3)CC2)C(F)(F)F)cc1 (mixture of isomers) [Ex. 126] only.
Marked response: 3.13

###

Tested on: Cryptococcus neoformans IFM. 40092
Assay: In vitro antifungal activity, microbroth dilution MIC
Type: cell-based
Conditions: Cry. neoformans IFM. 40092, RPMI-1640, 35° C., 4 to 48 hours
endpoint: Minimal inhibitory concentration (MIC)

FC(OCC1COC(Cn2ccnc2)(c2ccc(Cl)cc2Cl)O1)=C(c1ccc2c(c1)OCO2)C(F)(F)F (centres unmarked) | 0.78 µg/mL
FC(=Cc1ccc(F)cc1)OCC1COC(Cn2ccnc2)(c2ccc(F)cc2F)O1 (mixture of isomers) | ≦0.10 μg/ml
CC(C)Oc1cccc(C=C(F)OCC2COC(Cn3ccnc3)(c3ccc(Cl)cc3Cl)O2)c1 (centres unmarked) | 0.39 µg/mL
FC(OCC1COC(Cn2ccnc2)(c2ccc(F)cc2F)O1)=C(c1cccs1)C(F)(F)F (mixture of isomers) | ≦0.10 μg/ml
FC(OCC1COC(Cn2ccnc2)(c2ccc(F)cc2F)O1)=C(c1cc(Cl)cc(Cl)c1)C(F)(F)F (mixture of isomers) | 0.20 µg/mL

Exam item: Answer with the recorded Minimal inhibitory concentration (MIC) of FC(OCC1COC(Cn2ccnc2)(c2ccc(F)cc2F)O1)=C(c1ccc(C(F)(F)F)cc1)C(F)(F)F (mixture of isomers) only.
Marked response: 0.78 µg/mL

Exam item: Answer with the recorded Minimal inhibitory concentration (MIC) of FC(OCC1COC(Cn2ccnc2)(c2ccc(Cl)cc2Cl)O1)=C(c1cccc(F)c1)C(F)(F)F (mixture of isomers) only.
Marked response: 0.39 µg/mL

Exam item: Answer with the recorded Minimal inhibitory concentration (MIC) of FC(OCC1COC(Cn2ccnc2)(c2ccc(F)cc2F)O1)=C(c1cccc(F)c1)C(F)(F)F (mixture of isomers) only.
Marked response: ≦0.10 μg/ml

Exam item: Answer with the recorded Minimal inhibitory concentration (MIC) of FC(OCC1COC(Cn2ccnc2)(c2ccc(Cl)cc2Cl)O1)=C(c1ccc(C(F)(F)F)cc1)C(F)(F)F (centres unmarked) only.
Marked response: 0.78 µg/mL

Exam item: Answer with the recorded Minimal inhibitory concentration (MIC) of COc1cccc(C=C(F)OCC2COC(Cn3ccnc3)(c3ccc(F)cc3F)O2)c1 (mixture of isomers) only.
Marked response: 0.39 µg/mL

Exam item: Answer with the recorded Minimal inhibitory concentration (MIC) of FC(=Cc1ccccc1)OCC1COC(Cn2ccnc2)(c2ccc(F)cc2F)O1 (mixture of isomers) only.
Marked response: 0.78 µg/mL

Exam item: Answer with the recorded Minimal inhibitory concentration (MIC) of Cc1ccc(C(=C(F)OCC2COC(Cn3ccnc3)(c3ccc(Cl)cc3Cl)O2)C(F)(F)F)cc1C (centres unmarked) only.
Marked response: 0.39 µg/mL

Exam item: Answer with the recorded Minimal inhibitory concentration (MIC) of FC(OCC1COC(Cn2ccnc2)(c2ccc(F)cc2F)O1)=C(c1ccccc1)C(F)(F)F (mixture of isomers) only.
Marked response: ≦0.10 μg/ml

Exam item: Answer with the recorded Minimal inhibitory concentration (MIC) of FC(=Cc1cccc(F)c1)OCC1COC(Cn2ccnc2)(c2ccc(F)cc2F)O1 (mixture of isomers) only.
Marked response: ≦0.10 μg/ml

###

Listed here are compounds together with their documented Minimal inhibitory concentration (MIC).
Tested on: Candida krusei K. 11655
Assay: In vitro antifungal activity, microbroth dilution MIC
Format: cell-based
Settings: C. krusei K. 11655, RPMI-1640, 35° C., 4 to 48 hours
Respond with the bare value in µg/mL.

# example entries with known answers
CCOc1ccc(C=C(F)OCC2COC(Cn3ccnc3)(c3ccc(F)cc3F)O2)cc1 (mixture of isomers) | 12.5
FC(OCC1COC(Cn2ccnc2)(c2ccc(F)cc2F)O1)=C(c1ccc2c(c1)OCO2)C(F)(F)F (mixture of isomers) | 100

// next item, Minimal inhibitory concentration (MIC) requested
Exam item: Answer with the recorded Minimal inhibitory concentration (MIC) of CC(C)Oc1cccc(C=C(F)OCC2COC(Cn3ccnc3)(c3ccc(Cl)cc3Cl)O2)c1 (stereo not shown) only.
Marked response: 12.5

Attribution: patent US6376497B1
